# testTarget: HLA-A*02:06 molecule (product of HLA-A*02:06 gene) (human)
# experimentNotes: flow cytometry, RA2.6 cells, peptide dilution series, BB7.2 staining
Each entry below lists one item and its recorded Binding Experiment Data (log Kd) value.
Please give a number only; it is taken to be in log Kd.

Look at this binder and give its reported Binding Experiment Data (log Kd). YGAAVQAAI (modifications not checked) [peptide … (SEQ ID NO: 7)]
-5.37

Look at this binder and give its reported Binding Experiment Data (log Kd). VLVGGSTRI (modifications not checked) [peptide … (SEQ ID NO: 5)]
-5.07

Look at this binder and give its reported Binding Experiment Data (log Kd). LLLDVAPLS (modifications not checked) [peptide … (SEQ ID NO: 8)]
-6.17

For the next question, use this binder.
Look at this binder and give its reported Binding Experiment Data (log Kd). AQIHDLVLV (modifications not checked) [peptide … (SEQ ID NO: 12)]
-6.45
